testProtocol: Human HepG2 cell viability assay in 384 well format
Format: toxicity, cell-based
Set-up: dose 125 nL, time 70.5 hour; concentration not given beside the values
recordedConditions: HepG2 cells, read-out: Inhibition
Consider the following molecules and their measured cytotoxicity at 70.5 h readings.
Reply numerically in %, unit not repeated.

Below, 6 molecules whose answers are already recorded.
{"molecule": "COc1cccc(OC2CN(C(=O)CCn3cnc4ccccc43)C2)c1", "valueUnits": "%", "cytotoxicity at 70.5 h": 29.2}
{"molecule": "CC(=O)N[C@@H]1CN(C(=O)Cc2coc3cc(C)ccc23)C[C@H]1O", "valueUnits": "%", "cytotoxicity at 70.5 h": -2.72}
{"molecule": "O=C(Nc1ccc2c(c1)OC1(CCCC1)O2)c1ccc(=O)[nH]n1", "valueUnits": "%", "cytotoxicity at 70.5 h": -6.98}
{"molecule": "CC(C)N1CCCC(C(=O)NCc2noc(Cc3ccccc3)n2)C1 (stereo unspecified)", "valueUnits": "%", "cytotoxicity at 70.5 h": 8.23}
{"molecule": "CCOc1ncccc1C(=O)N1CCCC1Cn1nc(C)cc1C (stereo unspecified)", "valueUnits": "%", "cytotoxicity at 70.5 h": 5.47}
{"molecule": "O=C(CO)N1CC2(CCN(c3ccccc3)C2)C1", "valueUnits": "%", "cytotoxicity at 70.5 h": -6.59}

Task item: // cytotoxicity at 70.5 h lookup, key: CC(C)NC(=O)[C@@H]1C[C@H]2OCC[C@H]2N(Cc2ccc3ccccc3n2)C1
Reply: 12.8

Task item: Another molecule to check: CN(C)c1ccc(-c2noc([C@@H]3CCCN3)n2)cn1
Reply: 6.36

Task item: Another molecule to check: NS(=O)(=O)CCNC(=O)c1nnn(-c2ccccc2)c1C1CC1
Reply: -2.47

Task item: Another molecule to check: CC(C)(C)C(=O)N1CCC(c2cnc(-c3cn[nH]c3)cn2)CC1
Reply: -4.2

Task item: Another molecule to check: Cc1c[nH]c(C(=O)N2CCC(c3nnc(CN(C)CCO)n3C)CC2)c1
Reply: 4.25

Task item: Another molecule to check: Cc1ccc(C(C)(C)CNC(=O)NC(C)Cn2cncn2)cc1 (stereo unspecified)
Reply: -0.962

Task item: Another molecule to check: CCC(CN1CCCC1)NC(=O)C1(c2cccc(F)c2)CC1 (stereo unspecified)
Reply: -6.19

Task item: Another molecule to check: CCc1cc(=O)n(CC(=O)N2CCC(C)CC2)c(-c2ccccc2)n1
Reply: -10.3

The values you see were collected from ChEMBL document CHEMBL3507680.
